TESTED_ON: human dopamine reuptake transporter (Homo sapiens)
Construct: expressed in transfected cells; host or cells: CHO-K1 or HEK293
Sequence (Q01959 whole entry): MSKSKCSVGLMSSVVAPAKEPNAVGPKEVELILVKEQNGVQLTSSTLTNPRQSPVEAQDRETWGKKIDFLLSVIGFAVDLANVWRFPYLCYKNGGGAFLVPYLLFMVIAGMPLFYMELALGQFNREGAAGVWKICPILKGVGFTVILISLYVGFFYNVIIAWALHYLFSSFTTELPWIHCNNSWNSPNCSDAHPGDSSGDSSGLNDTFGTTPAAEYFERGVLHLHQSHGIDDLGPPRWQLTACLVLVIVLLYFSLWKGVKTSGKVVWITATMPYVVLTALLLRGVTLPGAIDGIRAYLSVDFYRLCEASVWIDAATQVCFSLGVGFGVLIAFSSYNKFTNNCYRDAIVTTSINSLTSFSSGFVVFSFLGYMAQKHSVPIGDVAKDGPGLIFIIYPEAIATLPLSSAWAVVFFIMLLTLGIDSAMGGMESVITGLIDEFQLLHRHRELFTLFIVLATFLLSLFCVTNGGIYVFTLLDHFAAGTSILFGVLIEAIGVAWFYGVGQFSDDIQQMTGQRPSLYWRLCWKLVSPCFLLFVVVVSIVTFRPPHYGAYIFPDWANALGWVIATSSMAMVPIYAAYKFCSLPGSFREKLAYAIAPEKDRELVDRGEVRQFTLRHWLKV
ASSAY_OVERVIEW: cell-based
PROTOCOL_CONDITIONS: recombinant human dopamine transporter (DAT); read-out: Human IC50 (nM) hDAT
EXPERIMENTAL_ENDPOINT: IC50 (nM)
Give the quantity in nM, number only.

Worked cases, answers included:
COC1CCC(CN(C)C)(c2ccc(Cl)c(Cl)c2)CC1 (stereo not drawn) [Compound 256] = 157
CN(C)CC1(c2ccc3ccccc3c2)CCC(C)(O)CC1 (stereo not drawn) [Compound 224] = 993
CN(C)C[C@]1(c2ccc(Cl)c(Cl)c2)CCC[C@H](O)C1 (relative stereo) [Compound 203] = 1.4
CC(N(C)C)C1(c2ccc(OC(F)(F)F)cc2)CCCCC1 (single isomer, unassigned) [63 E2] = 1820
CC(N(C)C)C1(c2ccc3ccccc3c2)CCC(C)(O)CC1 (single isomer, unassigned) [234 E1] = 346
Clc1ccc(C2(C3CCCN3)CCCCC2)cc1Cl (stereo not drawn) [Compound 296] = 27
CN(C)CC1(c2ccc3c(c2)OCO3)CCC(O)CC1 (stereo not drawn) [Compound 238] = 5720

Field: next molecule
I am curious: what IC50 value has been reported for CNC(C)C1(c2cccc3ccccc23)CCCCC1 (single isomer, unassigned) [59 E1] ?
1750
